MEASUREMENT_TARGET: SARS-CoV-2 Beta (B.1.351) S1 (SARS-CoV-2 Beta (B.1.351), strain)

[
  {
    "BINDER": "YB12-187 (antibody, V domains shown) VH: EVQLVESGGGLVKPGGSLRLSCAASGFIFSTYSMNWVRQAPGKGLEWVSSISSFSTYIYYADSVKGRFTISRDNAKNSLYLQMNSLRAEDTAVYYCASGQMYSGSYPSGDYFDYWGQGTLVTVSS VL: LSVLTQPPSVSGAPGQRVTISCTGSSSNIGADYDVHWYQQLPGTAPKLLIYGNTNRPSGVPDRFSGSKSGTSASLAITGLQAEDEAHYYCQSYDTSLSGVVFGGGTKLTVL",
    "binding result": "binds"
  }
]
